Examples of binders with documented % Positive cells follow.
# system: T1, human CCR8 (human, UniProt P51685 1-355)
# T1 construct: Native CCR8 on human PBMC (CCR8+ CD3+ or CCR8+ CD4+ lymphocytes); also called chemokine (C-C motif) receptor 8
# T1 sequence (P51685 whole entry): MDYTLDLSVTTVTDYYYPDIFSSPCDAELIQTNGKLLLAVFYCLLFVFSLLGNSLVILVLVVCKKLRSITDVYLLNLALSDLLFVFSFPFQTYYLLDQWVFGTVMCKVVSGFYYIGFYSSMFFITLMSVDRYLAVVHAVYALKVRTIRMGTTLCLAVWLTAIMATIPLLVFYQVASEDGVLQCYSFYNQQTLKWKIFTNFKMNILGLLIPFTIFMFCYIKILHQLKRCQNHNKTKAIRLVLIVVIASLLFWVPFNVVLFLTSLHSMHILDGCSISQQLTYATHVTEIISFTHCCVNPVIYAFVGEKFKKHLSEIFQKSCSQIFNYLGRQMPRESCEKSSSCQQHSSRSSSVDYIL
# experiment: flow blocking, PBMC CCR8+CD4+; competitor PE-AB12
Field format: number, assumed %, no unit text.

binder | % Positive cells, %
AB1 (antibody, V domains shown, Hybridoma monoclonal (mouse or rat); Same VH/VL entries as AB2; also called antibody 1; clone 1) VH: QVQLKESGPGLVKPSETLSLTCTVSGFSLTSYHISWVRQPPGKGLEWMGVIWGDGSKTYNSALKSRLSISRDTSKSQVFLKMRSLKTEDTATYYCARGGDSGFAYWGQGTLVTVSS VL: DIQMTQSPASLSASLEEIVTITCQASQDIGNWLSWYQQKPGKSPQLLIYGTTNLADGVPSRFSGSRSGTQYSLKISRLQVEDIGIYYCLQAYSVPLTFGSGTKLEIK | 1.85

Let us examine a further case.
The measured % Positive cells associated with AB2 (antibody, V domains shown, Hybridoma monoclonal; Same VH/VL entries as AB1; also called antibody 2; clone 2) VH: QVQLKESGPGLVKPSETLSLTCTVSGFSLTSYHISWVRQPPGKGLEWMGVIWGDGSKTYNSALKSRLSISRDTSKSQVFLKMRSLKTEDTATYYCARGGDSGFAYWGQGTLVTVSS VL: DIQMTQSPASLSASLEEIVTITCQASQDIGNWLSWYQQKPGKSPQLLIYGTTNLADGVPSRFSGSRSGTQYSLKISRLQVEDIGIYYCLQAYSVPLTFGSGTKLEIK reads 1.96
